The measurements presented in this section are drawn from paper doi:10.1101/2023.09.15.557970.

Molecular target: Human CSL spanning residues 25-449 (human, UniProt Q06330 25-449)
Sequence (Q06330 25-449): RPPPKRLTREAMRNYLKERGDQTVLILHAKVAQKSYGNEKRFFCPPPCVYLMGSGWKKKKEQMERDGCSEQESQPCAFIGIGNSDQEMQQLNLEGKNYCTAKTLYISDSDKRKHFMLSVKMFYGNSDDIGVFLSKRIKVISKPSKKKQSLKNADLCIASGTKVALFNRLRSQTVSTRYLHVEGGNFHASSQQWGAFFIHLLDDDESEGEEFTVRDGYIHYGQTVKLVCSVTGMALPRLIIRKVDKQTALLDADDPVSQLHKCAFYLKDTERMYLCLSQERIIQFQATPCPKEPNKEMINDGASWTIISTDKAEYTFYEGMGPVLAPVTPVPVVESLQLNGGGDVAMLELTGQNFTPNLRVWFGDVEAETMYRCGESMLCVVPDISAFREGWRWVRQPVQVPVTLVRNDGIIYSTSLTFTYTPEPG
Test: ITC
pKd: −log10 of the molar value.
MEASURED_METRIC: pKd

Prompt: Could you share which pKd value was measured for Notch2 RAMANK (domain or fragment, human, UniProt Q04721 1699-2076, looked up) MAKRKRKHGSLWLPEGFTLRRDASNHKRREPVGQDAVGLKNLSVQVSEANLIGTGTSEHWVDDEGPQPKKVKAEDEALLSEEDDPIDRRPWTQQHLEAADIRRTPSLALTPPQAEQEVDVLDVNVRGPDGCTPLMLASLRGGSSDLSDEDEDAEDSSANIITDLVYQGASLQAQTDRTGEMALHLAARYSRADAAKRLLDAGADANAQDNMGRCPLHAAVAADAQGVFQILIRNRVTDLDARMNDGTTPLILAARLAVEGMVAELINCQADVNAVDDHGKSALHWAAAVNNVEATLLLLKNGANRDMQDNKEETPLFLAAREGSYEAAKILLDHFANRDITDHMDRLPRDVARDRMHHDIVRLLDEYNVTPSPPGTVL ?
Response: ≥ 7.00
